system: SN12C renal; assay: NCI tumour cell line growth inhibition, 48 h
Exercise: for every item that follows, state its recorded GI50.

input: Missing value: GI50, SN12C renal, entry `Clc1ccc(Nc2nc(Nc3ccccc3)nc(Nc3ccc(-c4cc(-c5ccc(Cl)cc5)on4)cc3)n2)cc1` . Fill in?
output: 24.8 µM

input: What would you report for `Nc1nnnc2nc[nH]c12` ?
output: 2.25 µM

input: What would you report for `COc1ccc2nc3cc([N+](=O)[O-])ccc3c(NNc3ccccc3)c2c1` ?
output: 18.9 µM

input: What would you report for `O=C1c2cccnc2C(=O)c2c1c(C(=O)NCCn1ccnc1)c1ccccn21` ?
output: 2.28 µM

###

Exercise: for every item that follows, state its recorded TGI.
system: CCRF-CEM leukemia; assay: NCI tumour cell line growth inhibition, 48 h

input: Missing value: TGI, CCRF-CEM leukemia, entry `N#C/C(=C\c1cc(O)ccc1O)C(N)=O` . Fill in?
output: 53.9 µM

input: What would you report for `NC(=O)NNCc1c(-c2ccccc2)no[n+]1[O-]` ?
output: > 100 µM

input: What would you report for `Cc1nc(-c2cnc(NC(C)C)n(C)c2=O)ccc1Oc1ccnc(-c2cnn(C)c2)c1` ?
output: > 100 µM

input: What would you report for `CCOC(=O)/C(C#N)=C1\SS/C(=C(/C#N)C(=O)OCC)S1` ?
output: 67.7 µM

input: What would you report for `Cc1nc(N)c(-c2ccccc2)s1` ?
output: > 73.9 µM

input: What would you report for `Cc1n[n+]([O-])c(C)cc1[N+](=O)[O-]` ?
output: 9.32 µM

input: What would you report for `CCCCCCCCCCCCCCCCc1c(C(=O)OC)nc(NN)[nH]c1=O` ?
output: > 50 µM

input: What would you report for O=C1/C(=C/c2[nH]ncc2-c2ccc(Cl)cc2)C(=O)N(c2ccccc2)C1c1ccccc1 (stereo not drawn) ?
output: 53.7 µM

input: What would you report for `CN1CCN(c2ccc(NC(=O)c3cncnc3Nc3ccc(OCc4cccc(F)c4)c(Cl)c3)cc2)CC1` ?
output: 4.23 µM

input: What would you report for COc1ccc(NC(=O)CC(=O)NNC(Sc2ccccc2)c2cc(N=Nc3ccc(Br)cc3)ccc2O)cc1 (stereo not drawn) ?
output: > 10 µM

input: What would you report for `O=S(=O)(O)c1ccc2c(N=Nc3ccc(N=Nc4ccccc4)cc3)c(O)c(S(=O)(=O)O)cc2c1` ?
output: > 100 µM

input: What would you report for O=C(O)C(O)C(O)C(O)C(O)C(=O)O (stereo not drawn) ?
output: > 100 µM

input: What would you report for `CN(C)CCn1cnc2ncccc2c1=O` ?
output: > 100 µM

###

Exercise: for every item that follows, state its recorded TGI.
test system: SF-295 CNS; assay: NCI tumour cell line growth inhibition, 48 h

input: Consider the compound shown here: `O=C(Cc1csc2nc(-c3ccc(Cl)cc3)cn12)N/N=C/c1ccccc1O` What is its recorded TGI?
output: > 100 µM

input: What would you report for CN(NC1OC(CO)C(O)C(O)C1O)c1ccccc1 (configuration not stated) ?
output: > 100 µM

input: What would you report for `CN(C)Cc1ccc(C(C)(C)C)cc1-c1cc(C(C)(C)C)ccc1CN(C)C` ?
output: > 100 µM

input: What would you report for `COc1cc(/C=C/C(=O)/C=C/c2cc3ccc(Cl)cc3n(Cc3ccccc3)c2=O)ccc1O` ?
output: 10.8 µM

input: What would you report for `COc1cc(/C=N/c2ccccn2)cc(OC)c1OC` ?
output: > 100 µM

input: What would you report for `COC(=O)c1nn2ccc3ccccc3c2c1C(=O)OC` ?
output: > 100 µM

input: What would you report for `CCc1[nH]c(=O)c2oc3cc4ccccc4cc3c2c1C(=O)O` ?
output: > 10 µM

input: What would you report for `NC(=O)CC1(O)C=C(Br)C(=O)C(Br)=C1` ?
output: 26.5 µM

input: What would you report for `Nc1nnc(CCC(=O)Nc2cc(Cl)ccc2Cl)n1N` ?
output: > 100 µM

input: What would you report for CC[C@]1(O)CC2CN(CCc3c([nH]c4ccccc34)[C@@](C(=O)OC)(c3cc4c(cc3OC)N(C=O)[C@H]3[C@@](O)(C(=O)OC)[C@H](OC(C)=O)[C@]5(CC)C=CCN6CC[C@]43[C@@H]65)C2)C1 (some centres not stated) ?
output: 1.35 µM

input: What would you report for `CSc1nn(C)cc2nc(C)nc1-2` ?
output: > 100 µM

input: What would you report for CC(=O)OCC1OC(OCc2ccccc2)C(Br)C(OC(C)=O)C1OC(C)=O (configuration not stated) ?
output: > 100 µM

###

test system: LOX IMVI melanoma; assay: NCI tumour cell line growth inhibition, 48 h
Exercise: for every item that follows, state its recorded TGI.

input: Missing value: TGI, LOX IMVI melanoma, entry `O=C1c2cccnc2C(=O)c2c1c(C(=O)NCCn1ccnc1)c1ccccn21` . Fill in?
output: 5.54 µM

input: What would you report for `O=C(/C=C1\N=C(c2ccccc2)N(c2nc3c(Cl)cc(Cl)cc3s2)C1=O)/C=C/c1ccccc1` ?
output: > 100 µM

input: What would you report for `Cc1nc(N)c(-c2ccccc2)s1` ?
output: > 94.4 µM

input: What would you report for `O=C(Nc1ccc(-n2ccc3c(NC(=O)c4ccccc4)nccc32)cc1)Nc1cccc(C(F)(F)F)c1` ?
output: 10.9 µM

input: What would you report for `CN=C(N)N=Nc1c(O)[nH]c2ccccc12` ?
output: > 100 µM

input: What would you report for `CC1=C(C(=O)NCc2ccccc2)C(c2ccccc2C)C(C(=O)NCc2ccccc2)=C(C)N1` ?
output: 35.7 µM

input: What would you report for `COc1ccc(-c2ccccc2)c2[nH]c3c(c12)CCNC3=O` ?
output: > 100 µM

input: What would you report for `CC(=O)Oc1c(OC(C)C)c(C)c(O[Si](C(C)C)(C(C)C)C(C)C)c2[nH]c3ccccc3c12` ?
output: > 100 µM

input: What would you report for COc1cc(C2c3cc4c(cc3OC(NCCc3ccccc3)C2C)OCO4)cc(OC)c1OC (stereo not given) ?
output: 15.6 µM

input: What would you report for CC(=O)OCC1OC(n2c(N)c(C#N)c(C)c(C#N)c2=S)C(OC(C)=O)C(OC(C)=O)C1OC(C)=O (stereo not given) ?
output: > 100 µM

input: What would you report for `CN(C)CCn1cnc2ncccc2c1=O` ?
output: > 100 µM

input: What would you report for CC1(C(=O)O)C[C@](C)(C(=O)OCc2ccccc2)C[C@](C)(C(=O)OCc2ccccc2)C1 (stereo not given in full) ?
output: 92.4 µM

input: What would you report for `Cc1ccc(/C=C/c2c(C(=O)/C=C/c3ccc(Cl)cc3)c(C)nc3ccccc23)cc1` ?
output: 2.87 µM

input: What would you report for `CC1(C)OCN(c2ccc(S(N)(=O)=O)cc2)Cn2c1nc1ccccc12` ?
output: > 100 µM

input: What would you report for `C[C@@H]1O[C@]2(O)[C@@H]3CCCN3S(=O)(=O)CCN2C1=O` ?
output: > 100 µM

input: What would you report for C#CCNC(=O)NCCCCC(NC(C)=O)C(=O)NCc1ccccc1 (stereo not given) ?
output: > 100 µM

input: What would you report for `O=S(=O)(c1ccccc1)N1CN2CN(C1)CN(S(=O)(=O)c1ccccc1)C2` ?
output: > 100 µM

input: What would you report for `CN(C)/C=N\c1nncc2[nH]cnc12` ?
output: > 100 µM

input: What would you report for `CCN(CC)C(=S)SC1C(=O)NC(=O)NC1=O` ?
output: > 100 µM

input: What would you report for `CCCCOCOc1ccccc1P1(=O)COc2ccccc2OC1` ?
output: > 100 µM

input: What would you report for `CCCCCCCCCCCCCCCCc1c(C(=O)OC)nc(NN)[nH]c1=O` ?
output: > 50 µM

input: What would you report for `OCCCSCCO` ?
output: > 100 µM

input: What would you report for COC1[C@H](NC(=O)OC(C)(C)C)C(=O)N1Cc1ccccc1 (stereo not given in full) ?
output: > 100 µM

input: What would you report for CCN(CC)CCN1C(=O)C2C3C(=O)CC(C)(CC3C)C2C1=O (stereo not given) ?
output: > 100 µM

input: What would you report for `O=C(Nc1ccccc1C(F)(F)F)c1ccc(NC2=C(Cl)C(=O)N(Cc3ccccc3)C2=O)cc1` ?
output: > 100 µM

input: What would you report for `CCOC(=O)N(C)C(=C(F)F)C(F)(F)F` ?
output: 85.5 µM

input: What would you report for `Cc1ccc(NC(=O)CSc2nnc(Cc3ccccc3)o2)cc1` ?
output: > 100 µM

input: What would you report for O=C1/C(=C/c2[nH]ncc2-c2ccc(Cl)cc2)C(=O)N(c2ccccc2)C1c1ccccc1 (stereo not given) ?
output: 32.4 µM

input: What would you report for Cc1cc(C)c2c(c1)CC1(Cc3ccc(C)c(C)c3C1=O)C2=O (stereo not given) ?
output: > 100 µM

input: What would you report for `Cc1ccc(NC(=O)Nc2c(Cl)cccc2Cl)cn1` ?
output: > 100 µM
